Entry source: paper PMC10303384

Record form. Attribute: solubility. Fill in for each entry.
Test: Solubility classification in representative solvents (Vogel protocol)
Assay type: physicochemical
Conditions: methanol, organic solvent or mixture, thermodynamic from solid; 25 °C; test amount 0.1 g; Snyder polarity index 6.6; read-out: Solubility in Methanol

Query block: // lookup solubility for "CN(C/C=C/C#CC(C)(C)C)Cc1cccc2ccccc12"
Result block: > 100 mg/mL

Query block: Thanks! And "CN(C/C=C/C#CC(C)(C)C)Cc1cccc2ccccc12.O=C(O)/C=C/C(=O)O" ?
Result block: < 33.3 mg/mL

Query block: Thanks! And "CN(C/C=C/C#CC(C)(C)C)Cc1cccc2ccccc12.O=C(O)c1ccccc1O" ?
Result block: > 100 mg/mL

Query block: Thanks! And "CN(C/C=C/C#CC(C)(C)C)Cc1cccc2ccccc12.O=C(O)/C=C\C(=O)O" ?
Result block: > 100 mg/mL

* * *

Test system: Botrytis cinerea (B. cinerea)
Test: In vitro fungicidal activity, mycelial (hyphae) growth inhibition on PDA
Assay type: cell-based
Conditions: B. cinerea; read-out: EC50 (μmol/L)
OBSERVED_PROPERTY: EC50
Respond with a number, then the unit of measure.

Query block: // lookup EC50 for "CN(C/C=C/C#CC(C)(C)C)Cc1cccc2ccccc12.O=C(O)C1C(C(=O)O)[C@@]2(Cl)C(Cl)=C(Cl)[C@]1(Cl)C2(Cl)Cl"
Result block: 0.37 µmol/L

Query block: Thanks! And "CN(C/C=C/C#CC(C)(C)C)Cc1cccc2ccccc12.O=C(O)c1ccco1" ?
Result block: 0.33 µmol/L

* * *

Test system: Fusarium graminearum (F. graminearum)
Test: microbe, parasite or virus in culture
Format: cell-based
Settings: read-out: EC50 (μmol/L); F. graminearum
OBSERVED_PROPERTY: pEC50
Interpret pEC50 as the negative base-10 log of the concentration measured in mol/L.

Query block: // lookup pEC50 for CN(C/C=C/C#CC(C)(C)C)Cc1cccc2ccccc12.O=C(O)/C=C\C(=O)O [TIS 3]
Result block: 6.62

Query block: Thanks! And CN(C/C=C/C#CC(C)(C)C)Cc1cccc2ccccc12.O=C(O)/C=C/C(=O)O [TIS 4] ?
Result block: 6.68

Query block: Thanks! And CN(C/C=C/C#CC(C)(C)C)Cc1cccc2ccccc12.O=C(O)c1ccccc1O [TIS 1] ?
Result block: 6.64

* * *

Assay: Solubility of saturated solutions by HPLC at 25 °C
Assay type: physicochemical
Conditions: methanol, organic solvent or mixture, thermodynamic from solid, Table S1, read-out: Solubility, Methanol
OBSERVED_PROPERTY: solubility at 15 min (mM)
Reply with just the number (in mM).

Query block: // lookup solubility at 15 min for "CN(C/C=C/C#CC(C)(C)C)Cc1cccc2ccccc12.O=C(O)/C=C/C(=O)O"
Result block: 7.75

* * *

Assay: Surface tension of saturated aqueous solutions, Du Noüy ring method
Conditions: 25 °C
OBSERVED_PROPERTY: surface tension of the saturated aqueous solution (mN·m^−1)
Reply with just the number (in mN·m^−1).

Query block: // lookup surface tension of the saturated aqueous solution for "CN(C/C=C/C#CC(C)(C)C)Cc1cccc2ccccc12.O=C(O)c1ccco1"
Result block: 51.26

Query block: Thanks! And "CN(C/C=C/C#CC(C)(C)C)Cc1cccc2ccccc12.O=C(O)C1C(C(=O)O)[C@@]2(Cl)C(Cl)=C(Cl)[C@]1(Cl)C2(Cl)Cl" ?
Result block: 62.78

Query block: Thanks! And "CN(C/C=C/C#CC(C)(C)C)Cc1cccc2ccccc12.O=C(O)c1ccccc1O" ?
Result block: 58.33

Query block: Thanks! And "CN(C/C=C/C#CC(C)(C)C)Cc1cccc2ccccc12.O=C(O)/C=C/C(=O)O" ?
Result block: 55.68

Query block: Thanks! And "CN(C/C=C/C#CC(C)(C)C)Cc1cccc2ccccc12.O=C(O)/C=C\C(=O)O" ?
Result block: 61.48

Query block: Thanks! And "CN(C/C=C/C#CC(C)(C)C)Cc1cccc2ccccc12" ?
Result block: 59.92

* * *

Experiment: Solubility of saturated solutions by HPLC at 25 °C
Format: physicochemical
Conditions: water, read-out: water solubility
OBSERVED_PROPERTY: solubility at 15 min (µM)
Reply with just the number (in µM).

Query block: // lookup solubility at 15 min for CN(C/C=C/C#CC(C)(C)C)Cc1cccc2ccccc12.O=C(O)/C=C/C(=O)O [TIS 4]
Result block: 1920

* * *

Record form. Attribute: solubility at 15 min. Fill in for each entry.
Assay: Solubility of saturated solutions by HPLC at 25 °C
Format: physicochemical
Details: ethyl acetate, organic solvent or mixture, thermodynamic from solid, Table S1, read-out: Solubility, Ethyl acetate
Reply with just the number (in µM).

Query block: // lookup solubility at 15 min for "CN(C/C=C/C#CC(C)(C)C)Cc1cccc2ccccc12.O=C(O)/C=C/C(=O)O"
Result block: 880

Query block: Thanks! And "CN(C/C=C/C#CC(C)(C)C)Cc1cccc2ccccc12.O=C(O)/C=C\C(=O)O" ?
Result block: 485

* * *

Assay: Solubility of saturated solutions by HPLC at 25 °C
Type: physicochemical
Details: water, thermodynamic from solid, read-out: water solubility
OBSERVED_PROPERTY: solubility at 15 min (µM)
Reply with just the number (in µM).

Query block: // lookup solubility at 15 min for CN(C/C=C/C#CC(C)(C)C)Cc1cccc2ccccc12 [Terbinafine]
Result block: 5.22

* * *

Record form. Attribute: solubility. Fill in for each entry.
Test: Solubility classification in representative solvents (Vogel protocol)
Format: physicochemical
Settings: ethyl acetate, organic solvent or mixture, thermodynamic from solid; 25 °C; test amount 0.1 g; Snyder polarity index 4.3; read-out: Solubility in Ethyl acetate
Protocol: This investigation details how to determine the solubility of terbinafine and its salts, guided by the experimental protocol in Vogel’s Textbook of Practical Organic Chemistry. Based on the Snyder polarity index values of the representative solvents, each solvent was tested for its ability to dissolve the target analytes. The solubility data was classified into three categories based on the observed extent of dissolution. […]

Query block: // lookup solubility for CN(C/C=C/C#CC(C)(C)C)Cc1cccc2ccccc12.O=C(O)/C=C\C(=O)O [TIS 3]
Result block: < 33.3 mg/mL

Query block: Thanks! And CN(C/C=C/C#CC(C)(C)C)Cc1cccc2ccccc12.O=C(O)/C=C/C(=O)O [TIS 4] ?
Result block: < 33.3 mg/mL

Query block: Thanks! And CN(C/C=C/C#CC(C)(C)C)Cc1cccc2ccccc12 [Terbinafine] ?
Result block: > 100 mg/mL

Query block: Thanks! And CN(C/C=C/C#CC(C)(C)C)Cc1cccc2ccccc12.O=C(O)c1ccccc1O [TIS 1] ?
Result block: > 100 mg/mL

* * *

Record form. Attribute: solubility at 15 min. Fill in for each entry.
Assay: Solubility of saturated solutions by HPLC at 25 °C
Format: physicochemical
Conditions: acetone, organic solvent or mixture, thermodynamic from solid, Table S1, read-out: Solubility, Acetone
Reply with just the number (in µM).

Query block: // lookup solubility at 15 min for CN(C/C=C/C#CC(C)(C)C)Cc1cccc2ccccc12.O=C(O)/C=C\C(=O)O [TIS 3]
Result block: 3.76

Query block: Thanks! And CN(C/C=C/C#CC(C)(C)C)Cc1cccc2ccccc12.O=C(O)/C=C/C(=O)O [TIS 4] ?
Result block: 2070

* * *

Assay: Solubility classification in representative solvents (Vogel protocol)
Format: physicochemical
Conditions: various polar solvents, 25 °C, organic solvent or mixture, thermodynamic from solid; read-out: solubility in various polar solvents
OBSERVED_PROPERTY: solubility (mg/mL)
Reply with just the number (in mg/mL).

Query block: // lookup solubility for "CN(C/C=C/C#CC(C)(C)C)Cc1cccc2ccccc12"
Result block: 100

* * *

Record form. Attribute: solubility. Fill in for each entry.
Test: Solubility classification in representative solvents (Vogel protocol)
Assay type: physicochemical
Settings: toluene, organic solvent or mixture, thermodynamic from solid; 25 °C; test amount 0.1 g; Snyder polarity index 2.3; read-out: Solubility in Toluene

Query block: // lookup solubility for "CN(C/C=C/C#CC(C)(C)C)Cc1cccc2ccccc12"
Result block: > 100 mg/mL

Query block: Thanks! And "CN(C/C=C/C#CC(C)(C)C)Cc1cccc2ccccc12.O=C(O)/C=C\C(=O)O" ?
Result block: < 33.3 mg/mL

Query block: Thanks! And "CN(C/C=C/C#CC(C)(C)C)Cc1cccc2ccccc12.O=C(O)/C=C/C(=O)O" ?
Result block: < 33.3 mg/mL

Query block: Thanks! And "CN(C/C=C/C#CC(C)(C)C)Cc1cccc2ccccc12.O=C(O)c1ccccc1O" ?
Result block: > 100 mg/mL

* * *

Test: Solubility classification in representative solvents (Vogel protocol)
Assay type: physicochemical
Conditions: isopropanol, organic solvent or mixture, thermodynamic from solid; 25 °C; test amount 0.1 g; read-out: Solubility in Isopropanol
Record form. Attribute: solubility. Fill in for each entry.

Query block: // lookup solubility for "CN(C/C=C/C#CC(C)(C)C)Cc1cccc2ccccc12.O=C(O)/C=C/C(=O)O"
Result block: < 33.3 mg/mL

Query block: Thanks! And "CN(C/C=C/C#CC(C)(C)C)Cc1cccc2ccccc12" ?
Result block: > 100 mg/mL

Query block: Thanks! And "CN(C/C=C/C#CC(C)(C)C)Cc1cccc2ccccc12.O=C(O)c1ccccc1O" ?
Result block: < 33.3 mg/mL

Query block: Thanks! And "CN(C/C=C/C#CC(C)(C)C)Cc1cccc2ccccc12.O=C(O)/C=C\C(=O)O" ?
Result block: < 33.3 mg/mL
